Tested on: HepG2 cell line
methodSummary: In vitro toxicity study on HepG2 cell line (resazurin, viability and IC50)
Assay type: cell-based, human
conditionSummary: HepG2 cells, 25 μM lipid, 48 h post-treatment, resazurin, relative to ethanol vehicle controls
quantityMeasured: Viability (%) at different lipid concentrations, mean

[[record]]
compound = "CCCCC/C=C\\C/C=C\\CCCCCCCCOC(CCCCCCC/C=C\\C/C=C\\CCCCC)O[Si](C)(C)OCCCCCCN1CCN(CCO)CC1 (stereo not shown)"
subjectoftest = "HepG2 cell line"
measuredresult = 102.1

[[record]]
compound = "CCCCC/C=C\\C/C=C\\CCCCCCCCOC(CCCCCCC/C=C\\C/C=C\\CCCCC)O[Si](C)(C)OCCCCCCN(CCCCO)CCCCO (stereo not shown)"
subjectoftest = "HepG2 cell line"
measuredresult = 122.5

[[record]]
compound = "CCCCCCCC/C=C\\CCCCCCCCOC(CC[C@@H](C)C1CCC2C3CCC4C[C@H](OC)CC[C@]4(C)C3CC[C@@]21C)O[Si](C)(C)OCCCCCCN(CCO)CCO (stereo partly shown)"
subjectoftest = "HepG2 cell line"
measuredresult = 96.3

[[record]]
compound = "CCCCCCCC/C=C\\CCCCCCCCOC(=O)C(C)(C)CC(OCCCCCCCC/C=C\\CCCCCCCC)O[Si](C)(C)OCCCCCCN1CCCC1CO (stereo not shown)"
subjectoftest = "HepG2 cell line"
measuredresult = 96.6

[[record]]
compound = "CCCCC/C=C\\C/C=C\\CCCCCCCCOC(CCCCCCCCCCCCCCC)O[Si](C)(C)OCCCCCCN(CCO)CCO (stereo not shown)"
subjectoftest = "HepG2 cell line"
measuredresult = 102.2

[[record]]
compound = "CCCCC/C=C\\C/C=C\\CCCCCCCCOC(CCCCCCC/C=C\\CCCCCCCC)O[Si](C)(C)OCCCCCCN(CCO)CCO (stereo not shown)"
subjectoftest = "HepG2 cell line"
measuredresult = 101.2

[[record]]
compound = "CCCCC/C=C\\C/C=C\\CCCCCCCCOC(CC[C@@H](C)C1CCC2C3CCC4C[C@H](OC)CC[C@]4(C)C3CC[C@@]21C)O[Si](C)(C)OCCCCCCN(CCO)CCO (stereo partly shown)"
subjectoftest = "HepG2 cell line"
measuredresult = 104.2

[[record]]
compound = "CCCCC/C=C\\C/C=C\\CCCCCCCCOC(CCCCCCC/C=C\\C/C=C\\CCCCC)O[Si](C)(C)OCCCCCCN1CCOCC1 (stereo not shown)"
subjectoftest = "HepG2 cell line"
measuredresult = 92.4

[[record]]
compound = "CCCCCCCC/C=C\\CCCCCCCCOC(CCCCCCC/C=C\\CCCCCCCC)O[Si](C)(C)OCCCCCCN(C)[C@H](CO)Cc1ccccc1 (stereo partly shown)"
subjectoftest = "HepG2 cell line"
measuredresult = 101.5

[[record]]
compound = "CCCCC/C=C\\C/C=C\\CCCCCCCC(OCCCCCCCCCCCCCCCC)O[Si](C)(C)OCCCCCCN(CCO)CCO (stereo not shown)"
subjectoftest = "HepG2 cell line"
measuredresult = 106.8

[[record]]
compound = "CCCCC/C=C\\C/C=C\\CCCCCCCCOC(CCCCCCC/C=C\\C/C=C\\CCCCC)O[Si](C)(C)OCCCCCCN1CCCC1CO (stereo not shown)"
subjectoftest = "HepG2 cell line"
measuredresult = 96.6

[[record]]
compound = "CCCCC/C=C\\C/C=C\\CCCCCCCCOC(CCCCCN(C)CC(O)CO)O[Si](C)(C)OCCCCCCCC/C=C\\C/C=C\\CCCCC (stereo not shown)"
subjectoftest = "HepG2 cell line"
measuredresult = 97.2

[[record]]
compound = "CCCCCCCC/C=C\\CCCCCCCC(OCC(CCCCCC)CCCCCCCC)O[Si](C)(C)OCCCCCCN(CCO)CCO (stereo not shown)"
subjectoftest = "HepG2 cell line"
measuredresult = 99.0

